Before we begin, note that these IC50 values for Tyrosine-protein kinase JAK3 (Homo sapiens) originate from several publications.

[[record]]
compound = "C[C@H]1C[C@@H](Nc2c(-c3nccs3)cnc3[nH]ccc23)CN(CC2CC2(F)F)C1 (stereo partly shown)"
readout_label = "IC50"
result = "≤ 10 nM"

[[record]]
compound = "Cn1cc(-c2cc3nccn3c(-c3ccn([C@H](CCF)[C@H]4CC4(F)F)c3)n2)cn1"
readout_label = "IC50"
result = "10 to 100 nM"

[[record]]
compound = "COC(=O)c1cnc2[nH]ccc2c1N[C@H]1CCC[C@H](CCC#N)C1 (racemic)"
readout_label = "IC50"
result = "≤ 10 nM"


Continue with the next compound.
Test system Tyrosine-protein kinase JAK3 (Homo sapiens); read-out IC50; what value for CC#CC(=O)N1CC[C@H]1Cn1nc(-c2ccc(Oc3ccccc3)cc2)c2cncnc21 ?
> 500 nM
